test.target: human mAChR M4 (Homo sapiens, UniProt P08173)
Construct: expressed in transfected cells; host or cells: CHO-K1 (ATCC), stably expressing hM4 and Gqi5
Sequence (P08173 whole entry): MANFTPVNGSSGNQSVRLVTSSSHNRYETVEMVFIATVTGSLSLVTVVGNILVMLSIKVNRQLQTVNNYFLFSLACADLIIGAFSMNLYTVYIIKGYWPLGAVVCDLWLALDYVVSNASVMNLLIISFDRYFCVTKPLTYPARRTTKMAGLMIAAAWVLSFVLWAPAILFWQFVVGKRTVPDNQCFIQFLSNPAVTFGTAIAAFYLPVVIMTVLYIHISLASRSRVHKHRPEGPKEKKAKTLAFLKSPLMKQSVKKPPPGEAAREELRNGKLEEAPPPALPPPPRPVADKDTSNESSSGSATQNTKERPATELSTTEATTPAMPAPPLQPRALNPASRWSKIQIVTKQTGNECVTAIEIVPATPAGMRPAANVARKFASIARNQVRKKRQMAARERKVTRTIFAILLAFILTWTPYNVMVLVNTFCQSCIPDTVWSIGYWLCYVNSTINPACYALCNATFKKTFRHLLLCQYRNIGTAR
assay.method.text: mAChR M4 cell-based functional assay: calcium flux (Fluo-4, FDSS), positive allosteric modulator activity on the EC20 acetylcholine response, hM4-Gqi5 CHO-K1 cells
assay.context: human M4; PAM activity on EC20 acetylcholine response, calcium flux; read-out: Human M4 EC50
Experimental: […] Calcium flux was measured using the Functional Drug Screening System (FDSS) 6000 or 7000 (Hamamatsu Corporation, Tokyo, Japan) as an increase in the fluorescent static ratio. […] Agonist activity was analyzed as a concentration-dependent increase in calcium mobilization upon compound addition. Positive allosteric modulator activity was analyzed as a concentration-dependent increase in the EC20 acetylcholine response. […]
Please go through the items and note down their pEC50.
// pEC50: -log10(molar conc.)

Exam item: Param readout= pEC50; system= human mAChR M4 (Homo sapiens, UniProt P08173); entry= Cc1ccc(F)c(Oc2cnc3c(c2)CN(c2ncnc4ccc(Cl)cc24)CC3)c1 ; returns value.
Marked response: 5.28

Exam item: Next compound: Cc1ccc(-c2cnc3c(c2)CN(c2ncnc4cc(F)c(F)cc24)CC3)cn1
Marked response: 6.89

Exam item: Next compound: Cc1ncc(-c2cnc3c(c2)CN(c2nc(C(F)(F)F)nc4ccc(F)cc24)CC3)s1
Marked response: 6.09

Exam item: Next compound: Fc1ccc2ncnc(N3CCc4ncc(N5CCCn6ccnc65)cc4C3)c2c1
Marked response: 5.65

Exam item: Next compound: COc1cc2c(N3CCc4ncc(-c5cn(C)nc5C)cc4C3)nc(C)nc2cc1F
Marked response: 6.35

Exam item: Next compound: Fc1ccc2ncnc(N3CCc4ncc(-c5ccc(C6CC6)nc5)cc4C3)c2c1
Marked response: 6.59

Exam item: Next compound: CN1CCN(c2nc(N3CCc4ncc(Nc5ccnn5C)cc4C3)c3cc(F)ccc3n2)CC1
Marked response: 6.33

Exam item: Next compound: Cc1ccc2nc(NCC(C)(C)O)nc(N3CCc4ncc(C(F)(F)F)cc4C3)c2c1
Marked response: 6.41

---

test.target: human mAChR M4 (Homo sapiens, UniProt P08173)
Construct: expressed in transfected cells; host or cells: CHO-K1 (ATCC), stably expressing hM4 and Gqi5
assay.method.text: mAChR M4 cell-based functional assay: calcium flux (Fluo-4, FDSS), positive allosteric modulator activity on the EC20 acetylcholine response, hM4-Gqi5 CHO-K1 cells
assay.context: human M4; PAM activity on EC20 acetylcholine response, calcium flux; read-out: Human M4 EC50
pEC50: −log10 of the molar value.
Respond with class 1 for pEC50 values of 7 and above, class 0 for values below.

Exam item: Is it the case that Cc1nc(N2CCc3ncc(-c4ccc(C5CC5)nc4)cc3C2)c2cc(F)ccc2n1 [Compound 25] has pEC50 reaching or exceeding 7?
Marked response: class 0

Exam item: Next compound: Cc1ccc(-c2cnc3c(c2)CN(c2nc(Cl)nc4ncccc24)CC3)cn1 [Compound 36]
Marked response: class 0

Exam item: Next compound: Fc1cc2ncnc(N3CCc4ncc(N5CCOc6ncccc65)cc4C3)c2cc1F [Compound 98]
Marked response: class 1

Exam item: Next compound: Cc1noc(C)c1-c1cnc2c(c1)CN(c1nc(-c3c(C)noc3C)nc3ccc(Cl)cc13)CC2 [Compound 187]
Marked response: class 0

Exam item: Next compound: Fc1cc2ncnc(N3CCc4ncc(C5CC5)cc4C3)c2cc1F [Compound 162]
Marked response: class 1

Exam item: Next compound: CC1CN(c2ncnc3ccc(Cl)cc23)Cc2cc(N3CCOCC3)cnc21 (stereo not drawn) [Compound 253]
Marked response: class 1

Exam item: Next compound: Cc1ccccc1-c1cnc2c(c1)CN(c1ncnc3ccc(Cl)cc13)CC2 [Compound 300]
Marked response: class 0

Exam item: Next compound: CC1Cc2ncc(C(F)(F)F)cc2CN1c1ncnc2ccc(F)cc12 (stereo not drawn) [Compound 155]
Marked response: class 1
